Test system: STn on bovine submaxillary mucin (BSM)
Experiment: Anti-STn BSM ELISA, non-treated and periodate-treated wells
Format: binding
Details: BSM ELISA without and after periodate treatment
property-name: hybridoma screening: specificity for STn

molecule: 2D4: anti-STn mouse monoclonal, IgG2b κ, from mouse #4407; VH SEQ ID NO: 10, VL SEQ ID NO: 11 (antibody, V domains shown) VH: QVQLQESGPGLVAPSQSLSITCTVSGFSLISYGVNWVRQPPGKGLEWLGVIWGDGSTNYQSALISRLIISKDNSKSQVFLKLNSLQTDDTATYYCTKGFAYWGQGTLVTVSA VL: QIVLTQSPAIMSASPGEKVTMTCSASSSVSYMHWFQQKSGTSPKRWIYDTSKLASGVPARFSGSGSGTSYSLTISSMEAEDAATYYCQQWSSNLLTFGAGTKLELK
property-name: hybridoma screening: specificity for STn
observed-value: specific for STn
//
molecule: 8C11: anti-STn mouse monoclonal, IgG2b κ, from mouse #4407; VH SEQ ID NO: 8, VL SEQ ID NO: 9 (antibody, V domains shown) VH: QVQLKESGPGLVAPSQSLSITCTVSGFSLTSYGVSWVRQPPGKGLEWLGVIWGDGSTNYHSALISRLIISKDNSKSQVFLKLNSLQTDDTATYYCTKGFTYWGQGTLVTVSA VL: QIVLTQSPAIMSASPGEKVTMTCSASSSVSYMHWYQQKSGTSPKRWIFDTSKLASGVPARFSGSGSGTSYSLTISSMEAEDAATYYCQQWSSNLLTFGAGTKLELK
property-name: hybridoma screening: specificity for STn
observed-value: specific for STn
